Where these numbers come from: patent US9029405B2

Target: S1P3 (Homo sapiens)
Sequence (Q99500 whole entry, species assumed): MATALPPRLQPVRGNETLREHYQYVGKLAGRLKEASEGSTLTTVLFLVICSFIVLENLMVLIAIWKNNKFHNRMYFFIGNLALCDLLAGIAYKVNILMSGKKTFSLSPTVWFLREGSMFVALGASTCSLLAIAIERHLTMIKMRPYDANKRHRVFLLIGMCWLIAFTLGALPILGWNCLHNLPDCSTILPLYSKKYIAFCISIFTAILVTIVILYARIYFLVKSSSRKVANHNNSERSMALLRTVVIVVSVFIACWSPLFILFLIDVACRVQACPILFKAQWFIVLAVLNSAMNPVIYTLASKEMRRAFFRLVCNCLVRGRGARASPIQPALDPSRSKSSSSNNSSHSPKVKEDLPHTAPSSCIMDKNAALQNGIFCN
Test: Receptor binding assay, [33P]sphingosine 1-phosphate competition, membranes of CHO cells expressing S1P3
Settings: 384 well plate; read-out: S1P3 Binding Ki [M] (384 well plate)
Counter-ions that a name gives are not always drawn.
# key: entry, value: Ki
Dear colleague, please return just the value in M, with no unit written.

These solved cases illustrate the format of a correct answer.
COCc1cc(-c2nc(-c3ccc([C@@H](C)N[C@H](C)C(=O)O)cc3)no2)ccc1-c1ccccc1C [Example 4, hydrochloride salt] | 8.63e-07
COCc1cc(-c2nc(-c3ccc(C(C)N(C)CC(=O)O)cc3)no2)ccc1-c1ccccc1C (stereo not drawn) [Example 15, hydrochloride salt] | 5.68e-07
Cc1ccccc1-c1ccc(-c2nc(-c3cccc(CCN[C@@H](C)C(=O)O)c3)no2)cc1C(F)(F)F | 7.4e-08

// sample Cc1ccccc1-c1ccc(-c2nc(-c3cc(F)cc(CN[C@@H](CC(C)C)C(=O)O)c3)no2)cc1C(F)(F)F [Example 12, hydrochloride salt] , its Ki was 6.43e-07

// sample Cc1ccccc1-c1ccc(-c2nc(-c3ccc(C(C)NCC(=O)O)cc3)no2)cc1C(F)(F)F (stereo not drawn) [Example 32, hydrochloride salt] , its Ki was 4.33e-07

// sample `Cc1ccccc1-c1ccc(-c2nc(-c3ccc(CN[C@@H](CCO)C(=O)O)cc3)no2)cc1C(F)(F)F` , its Ki was 1.03e-06
